reported conditions: human, 2 h, 100 ng/mL
readout type: % from t0 (%)

O=C(C1CCCCC1)N1CCN(c2nc(=O)c3cc(C(F)(F)F)cc([N+](=O)[O-])c3s2)CC1 :: -3
O=c1nc(N2CCN(CC3CCCCC3O)CC2)sc2c([N+](=O)[O-])cc(C(F)(F)F)cc12 (stereo not drawn) :: -2
O=c1nc(N2CCN(CC3CCCCC3)CC2)sc2c([N+](=O)[O-])cc(C(F)(F)F)cc12 :: -1
O=c1nc(N2CCN(CC3CCCC(O)C3)CC2)sc2c([N+](=O)[O-])cc(C(F)(F)F)cc12 (stereo not drawn) :: 4
O=C1CCCC(CN2CCN(c3nc(=O)c4cc(C(F)(F)F)cc([N+](=O)[O-])c4s3)CC2)C1 (stereo not drawn) :: -5
O=c1nc(N2CCN(CC3(O)CCCCC3)CC2)sc2c([N+](=O)[O-])cc(C(F)(F)F)cc12 :: 0
